Assay procedure: in vitro
Format: cell-based
Measurement parameters: African green monkey
Experimental endpoint: IC50 at 24 h

>>> print(df.to_string())
                                        smi         val
0  CNc1c(-c2ccc(O)c3c2C[C@H]2C[C@H]4[C@H](N(C)C)C(O)=C(C(N)=O)C(=O)[C@@]4(O)C(O)=C2C3=O)c(=O)c1=O  < 35 µg/mL
1  CCONCc1ccc2c(c1O)C(=O)C1=C(O)[C@]3(O)C(=O)C(C(N)=O)=C(O)[C@@H](N(C)C)[C@@H]3C[C@@H]1C2  < 35 µg/mL
2  CN(C)[C@H]1C(O)=C(C(N)=O)C(=O)[C@@]2(O)C(O)=C3C(=O)c4c(O)ccc(CNOCC(F)(F)F)c4C[C@H]3C[C@@H]12  > 75 µg/mL

* * *

Assay procedure: in vitro
Assay type: cell-based
Measurement parameters: African green monkey
Experimental endpoint: IC50 at 24 h

In [3]: df
Out[3]:
                                   compound             val
0  CCNN(CC)Cc1ccc(O)c2c1C[C@H]1C[C@H]3[C@H](N(C)C)C(O)=C(C(N)=O)C(=O)[C@@]3(O)C(O)=C1C2=O [Z]      > 75 µg/mL
1  C=CCONCc1ccc(O)c2c1C[C@H]1C[C@H]3[C@H](N(C)C)C(O)=C(C(N)=O)C(=O)[C@@]3(O)C(O)=C1C2=O [AF]  35 to 75 µg/mL
2  CCO/N=C(\C)c1cc(CNCC(C)(C)C)c(O)c2c1C[C@H]1C[C@H]3[C@H](N(C)C)C(O)=C(C(N)=O)C(=O)[C@@]3(O)C(O)=C1C2=O [N]      > 75 µg/mL

* * *

Assay procedure: Half-life of oxidation, sodium periodate accelerated oxidation
Assay type: physicochemical
Measurement parameters: buffer, pH 11
Experimental endpoint: half-life (s)

>>> df
                                   compound  output_unit  val
0  CN(C)c1ccc(O)c2c1C[C@H]1C[C@H]3[C@H](N(C)C)C(O)=C(C(N)=O)C(=O)[C@@]3(O)C(O)=C1C2=O [Minocycline, reference compound]            s  8.2

* * *

Test system: E. coli MG 1655
Experimental endpoint: MIC

>>> df
                                    compound           val
 0  CN(C)[C@@H]1C(O)=C(C(N)=O)C(=O)[C@@]2(O)C(O)=C3C(=O)c4c(O)ccc(CNOCC(F)(F)F)c4C[C@H]3C[C@@H]12 [DZ]     > 8 µg/mL
 1  C=CCN(Cc1ccc(O)c2c1C[C@H]1C[C@H]3[C@H](N(C)C)C(O)=C(C(N)=O)C(=O)[C@@]3(O)C(O)=C1C2=O)C(=O)OC [F]     > 8 µg/mL
 2  C=CCONCc1ccc(O)c2c1C[C@H]1C[C@H]3[C@H](N(C)C)C(O)=C(C(N)=O)C(=O)[C@@]3(O)C(O)=C1C2=O [AF]  4 to 8 µg/mL
 3  CO/N=C/c1cc(N(C)C)c2c(c1O)C(=O)C1=C(O)[C@]3(O)C(=O)C(C(N)=O)=C(O)[C@@H](N(C)C)[C@@H]3C[C@@H]1C2 [V]     > 8 µg/mL
 4  CCONCc1ccc(O)c2c1C[C@H]1C[C@H]3[C@@H](N(C)C)C(O)=C(C(N)=O)C(=O)[C@@]3(O)C(O)=C1C2=O [AM]     > 8 µg/mL
 5  COC(=O)CONCc1ccc(O)c2c1C[C@H]1C[C@H]3[C@H](N(C)C)C(O)=C(C(N)=O)C(=O)[C@@]3(O)C(O)=C1C2=O [ED]  4 to 8 µg/mL
 6  CC(=O)c1cccc2c1C[C@H]1C[C@H]3[C@@H](N(C)C)C(O)=C(C(N)=O)C(=O)[C@@]3(O)C(O)=C1C2=O [D]     > 8 µg/mL
 7  CCO/N=C(\C)CN(C)Cc1ccc(O)c2c1C[C@H]1C[C@H]3[C@H](N(C)C)C(O)=C(C(N)=O)C(=O)[C@@]3(O)C(O)=C1C2=O [AL]  4 to 8 µg/mL
 8  CC(C)ONCc1ccc(O)c2c1C[C@H]1C[C@H]3[C@H](N(C)C)C(O)=C(C(N)=O)C(=O)[C@@]3(O)C(O)=C1C2=O [DV]     > 8 µg/mL
 9  CON(C)Cc1ccc2c(c1O)C(=O)C1=C(O)[C@]3(O)C(=O)C(C(N)=O)=C(O)[C@@H](N(C)C)[C@@H]3C[C@@H]1C2 [GL]     > 8 µg/mL
10  CNc1c(-c2ccc(O)c3c2C[C@H]2C[C@H]4[C@H](N(C)C)C(O)=C(C(N)=O)C(=O)[C@@]4(O)C(O)=C2C3=O)c(=O)c1=O [AD]  4 to 8 µg/mL
11  C/C(=N\OCC(F)(F)F)c1cc(N)c(O)c2c1C[C@H]1C[C@H]3[C@H](N(C)C)C(O)=C(C(N)=O)C(=O)[C@@]3(O)C(O)=C1C2=O [DT]  4 to 8 µg/mL
